- ASSAY TEXT: self-splicing fitness, log relative to wild type (ln ratio); higher = more splicing; Tetrahymena group I intron in knt gene, E. coli kanamycin selection, DiMSum; sequences stand for … in CUCUCU…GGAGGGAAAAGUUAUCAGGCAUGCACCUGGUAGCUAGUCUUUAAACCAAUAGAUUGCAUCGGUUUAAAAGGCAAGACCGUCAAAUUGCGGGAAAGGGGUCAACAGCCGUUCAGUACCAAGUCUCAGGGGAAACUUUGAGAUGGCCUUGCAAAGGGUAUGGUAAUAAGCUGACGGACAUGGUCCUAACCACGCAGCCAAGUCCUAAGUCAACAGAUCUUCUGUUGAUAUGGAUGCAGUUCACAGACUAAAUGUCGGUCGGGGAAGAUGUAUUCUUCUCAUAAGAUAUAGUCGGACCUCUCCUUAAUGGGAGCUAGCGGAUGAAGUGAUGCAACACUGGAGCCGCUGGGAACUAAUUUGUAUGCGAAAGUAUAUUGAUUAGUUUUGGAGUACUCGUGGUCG;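 further: selection with 25 µg/mL kanamycin versus none on LB agar overnight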
- CONDITION: 30 °C
self-splicing fitness (ln) listing for selected sequences.

q: Which value of self-splicing fitness (ln) has been reported for UUGCAGCAAUAUUACGUUCU in the records?
a: -2.44

More entries:
q: Need self-splicing fitness (ln), item CGGGAGCAAUAUUACGGGGU
a: -2.03

q: UAGAAGCAAUAUUACGUACA , same question.
a: -0.549

q: Also check CCAUAGCAAUAUUACGGUAC
a: -3.2

q: And CUCAAGCAAUAUUACGGUGA ?
a: -2.9

q: Would you mind doing GAACAGCAAUAUUACGCCCA as well?
a: 0.617

q: Another: AAGUAGCAAUAUUACGAUAU
a: -1.21

q: Also GUCCAGCAAUAUUACGUCGU , if possible.
a: -0.0754

q: Please answer likewise for AUGAAGCAAUAUUACGUCUC
a: -1.1

q: Let us now turn to UGCAAGCAAUAUUACGCCCA
a: -0.543

q: Next: UAUGAGCAAUAUUACGCGGA
a: -2.39

q: Consider next the sequence AGCCAGCAAUAUUACGGAAA in the same way.
a: -1.88

q: Moving on to the next sequence: GAGGAGCAAUAUUACGCUAU
a: -2.8

q: What do you have for AGGCAGCAAUAUUACGCGUC ?
a: -3.34

q: # repeat for UCAUAGCAAUAUUACGUCGC
a: -2.62

q: Request: UCCCAGCAAUAUUACGAUAA
a: -2.32
